test: Lipophilicity, log P of compound by RP-HPLC analysis; format: physicochemical
RECORDED METRIC: logP
// keep it numeric: no unit symbol after the value

Example compounds with recorded logP:
SMILES INPUT | logP
Clc1ccccc1/C=C/c1ccc2cccc(Cl)c2n1 | 5.85
Oc1ccc(/C=C/c2ccc3c(Cl)cc(Cl)c(O)c3n2)cc1O | 4.68
CCOc1ccc(/C=C/c2ccc3cccc(O)c3n2)cc1 | 4.55

Identify measured logP associated with "Oc1ccc(/C=C/c2ccc3c(Cl)cc(Cl)c(O)c3n2)c(O)c1"
4.68

Identify measured logP associated with "Oc1ccccc1/C=C/c1ccc2cccc(O)c2n1"
3.95

Identify measured logP associated with "CCOc1ccc(/C=C/c2ccc3c(Cl)cc(Cl)c(O)c3n2)cc1"
5.67
